Recorded values, source BigSolDB 2.1.

experimental-conditions: in acetone, 301.45 K

compound: O=P1(O)OCC2(CO1)COP(=O)(O)OC2 (stereo unspecified)
solubility (mole fraction): 0.0044

###

Item-by-item account of solubility (mole fraction)
experimental-conditions: in toluene, 323.16 K

compound: COc1ccc(P(c2ccc(OC)cc2)c2ccc(OC)cc2)cc1
solubility (mole fraction): 0.00105
//
compound: O=C(O)CCP(=O)(O)c1ccccc1
solubility (mole fraction): 0.00119
//
compound: O=P1(O)OCC2(CO1)COP(=O)(O)OC2 (stereo not given)
solubility (mole fraction): 0.00146
//
compound: COc1ccc(P(=O)(c2ccc(OC)cc2)c2ccc(OC)cc2)cc1
solubility (mole fraction): 0.00121
//
compound: O=P(O)(CO)c1ccccc1
solubility (mole fraction): 0.0026
